Data provenance is patent US20230212289A1.

# System: CD3 (antigen of the binding affinity table of Example 1) (UniProt P07766)
# Protocol Details: kinetic fit with two-state parameters; method not given
In this section, each of the binders is paired with its reported kd2.
Answer format: numeric, s⁻¹ implied, no suffix.

[[record]]
binder = "H4L3 (antibody, V domains shown) VH: QVQLQQSGAEVKKPGASVKMSCKASGYTFTRYTMHWVRQAPGQGLEWIGYINPSRGYTNYNQKFKDRVTLTTDTSISTAYMELSRLRSDDTAVYYCARYYDDHYSLDYWGQGTTLTVSS VL: DIQLTQSPSSLSASVGDRVTITCSASSSVSYMNWYQQKPGKAPKLLIYDTSKLASGVPSRFSGSGSGTDYTLTISSLQPEDFATYYCQQWSSNPFTFGSGTKLEINR"
assay_value = 0.00238

[[record]]
binder = "H2L1 (antibody, V domains shown) VH: QVQLQQSGAEVAKPGASVKVSCKASGYTFTRYTMHWVRQAPGQGLEWMGYINPSRGYTNYNQKFKDRATLTRDKSISTAYMELSRLRSDDTAVYYCARYYDDHYSLDYWGQGTTLTVSS VL: DIQMTQSPSSLSASVGDRVTMTCSASSSVSYMNWYQQKPGKAPKRLIYDTSKLASGVPSRFSGSGSGTDFTLTISSLQPEDFATYYCQQWSSNPFTFGSGTKLEINR"
assay_value = 0.000779

[[record]]
binder = "H2L6 (antibody, V domains shown) VH: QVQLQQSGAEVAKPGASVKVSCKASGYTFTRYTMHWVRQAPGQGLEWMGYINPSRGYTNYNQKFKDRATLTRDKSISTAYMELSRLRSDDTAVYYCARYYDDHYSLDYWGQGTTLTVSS VL: DIQMTQSPSSLSASVGDRVTITCSASSSVSYMNWYQQKPGKAPKLWIYDTSKLASGVPSRFSGSGSGTDYTLTISSLQPEDFATYYCQQWSSNPFTFGSGTKLEINR"
assay_value = 0.00581

[[record]]
binder = "H2L2 (antibody, V domains shown) VH: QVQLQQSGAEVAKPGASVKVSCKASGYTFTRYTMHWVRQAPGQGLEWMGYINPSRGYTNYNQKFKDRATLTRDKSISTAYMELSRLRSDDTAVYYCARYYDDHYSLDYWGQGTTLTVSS VL: DIQMTQSPSSLSASVGDRVTMTCSASSSVSYMNWYQQKPGKAPKLLIYDTSKLASGVPSRFSGSGSGTDFTLTISSMQPEDFATYYCQQWSSNPFTFGSGTKLEINR"
assay_value = 0.000814


Turning to the following binder.
(Q) Write down kd2 measured for item H3L4 (antibody, V domains shown) VH: QVQLVQSGAEVKKPGASVKMSCKASGYTFTRYTMHWVRQAPGQGLEWIGYINPSRGYTNYNQKFKDRATMTTDKSISTAYMELSRLRSDDTAVYYCARYYDDHYSLDYWGQGTTLTVSS VL: DIQLTQSPSSLSASVGDRVTITCSASSSVSYMNWYQQKPGKAPKLLIYDTSKLASGVPSRFSGSGSGTDFTLTISSMQPEDFATYYCQQWSSNPFTFGSGTKLEINR
(A) 0.000744
